- experimental_system: T1, Human BCMA (human, UniProt Q02223 1-54, limits assumed)
- T1 construct: Soluble analyte in SPR; construct not described; also called huBCMA; B-cell maturation antigen
- T1 sequence (looked up): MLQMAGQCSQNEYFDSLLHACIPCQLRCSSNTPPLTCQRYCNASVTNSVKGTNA
- assay_details: SPR, IgG immobilised, 37 C
metric: Kd (nM)
Dear colleague, please return just the value in nM, with no unit written.

Some binders with known Kd results, for comparison:
### Prompt Look up and report measured Kd for this entry: L3.PY/H3.YA (antibody, V domains shown, IgG) VH: EVQLLESGGGLVQPGGSLRLSCAASGFTFGSYAMTWVRQAPGKGLEWVSAISGSGGNTFYADSVKGRFTISRDNSKNTLYLQMNSLRAEDTAVYYCARVSPIYAGMDYWGQGTLVTVSS VL: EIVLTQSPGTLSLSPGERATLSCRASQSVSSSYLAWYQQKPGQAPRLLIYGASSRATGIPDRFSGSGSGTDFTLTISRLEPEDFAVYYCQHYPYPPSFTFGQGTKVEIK
### Response 0.37

### Prompt Consider the binder L3.PY/L3.KY/H2.QL (antibody, V domains shown, IgG) VH: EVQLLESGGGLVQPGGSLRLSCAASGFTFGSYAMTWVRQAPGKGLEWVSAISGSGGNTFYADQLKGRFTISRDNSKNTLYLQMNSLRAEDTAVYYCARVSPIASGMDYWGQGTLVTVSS VL: EIVLTQSPGTLSLSPGERATLSCRASQSVSSSYLAWYQQKPGQAPRLLIYGASSRATGIPDRFSGSGSGTDFTLTISRLEPEDFAVYYCKYYPYPPSFTFGQGTKVEIK and give its recorded Kd.
### Response 0.57

### Prompt Please supply the value of reported Kd for the item L3.PY/L1.PH/H3.TAQ (antibody, V domains shown, IgG) VH: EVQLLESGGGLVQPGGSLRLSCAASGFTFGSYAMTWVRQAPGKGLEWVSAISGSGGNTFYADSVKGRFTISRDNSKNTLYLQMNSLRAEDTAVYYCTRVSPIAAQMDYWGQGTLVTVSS VL: EIVLTQSPGTLSLSPGERATLSCRASQSVSPHYLAWYQQKPGQAPRLLIYGASSRATGIPDRFSGSGSGTDFTLTISRLEPEDFAVYYCQHYPYPPSFTFGQGTKVEIK
### Response 0.59

Next:
### Prompt Given L3.PY/H2.DY (antibody, V domains shown, IgG) VH: EVQLLESGGGLVQPGGSLRLSCAASGFTFGSYAMTWVRQAPGKGLEWVSAIDYSGGNTFYADSVKGRFTISRDNSKNTLYLQMNSLRAEDTAVYYCARVSPIASGMDYWGQGTLVTVSS VL: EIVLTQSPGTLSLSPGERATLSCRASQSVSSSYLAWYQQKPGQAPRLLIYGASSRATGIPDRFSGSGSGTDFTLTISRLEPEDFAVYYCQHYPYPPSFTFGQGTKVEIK , respond with its Kd.
### Response 0.53

### Prompt Tell us which Kd value is on record for L3.PY/L1.FF/H2.QL (antibody, V domains shown, IgG) VH: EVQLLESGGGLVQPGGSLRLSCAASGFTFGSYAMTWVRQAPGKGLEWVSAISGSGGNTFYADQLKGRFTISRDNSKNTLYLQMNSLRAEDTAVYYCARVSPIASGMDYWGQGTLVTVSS VL: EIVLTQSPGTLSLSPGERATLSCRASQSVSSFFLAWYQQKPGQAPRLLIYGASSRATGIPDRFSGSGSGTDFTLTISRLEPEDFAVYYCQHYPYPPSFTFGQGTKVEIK
### Response 0.4
